Below are IC50 measurements against High affinity 3',5'-cyclic-AMP phosphodiesterase 7A (Homo sapiens, UniProt Q13946) drawn from the literature.
Sequence (Q13946 whole entry): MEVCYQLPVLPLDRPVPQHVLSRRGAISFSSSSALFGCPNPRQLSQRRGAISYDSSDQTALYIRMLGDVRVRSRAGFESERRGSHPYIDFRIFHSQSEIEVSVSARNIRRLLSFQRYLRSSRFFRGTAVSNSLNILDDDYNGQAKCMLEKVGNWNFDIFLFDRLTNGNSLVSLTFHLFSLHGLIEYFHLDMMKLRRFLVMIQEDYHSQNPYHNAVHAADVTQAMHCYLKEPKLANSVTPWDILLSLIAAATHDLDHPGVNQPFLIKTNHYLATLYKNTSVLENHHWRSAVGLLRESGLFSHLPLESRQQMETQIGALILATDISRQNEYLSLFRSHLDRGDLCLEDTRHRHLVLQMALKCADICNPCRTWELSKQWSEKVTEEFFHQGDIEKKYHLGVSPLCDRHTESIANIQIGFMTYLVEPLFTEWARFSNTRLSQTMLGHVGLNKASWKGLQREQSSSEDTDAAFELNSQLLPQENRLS
VALUE_KIND: IC50 (nM)

1. Cn1nc(-c2ccc(Cl)cc2)s/c1=N\c1ccccc1    2950
2. Cn1nc(-c2ccc(Cl)cc2)s/c1=N\c1cccc(C(=O)O)c1    140
3. Cn1nc(-c2ccc(Cl)cc2)s/c1=N\c1ccc(F)c(C(=O)O)c1    160
4. CN(C)CCOc1ccc(Cl)c2c1C1(CCCCC1)NC(=O)N2    150
5. O=C1Nc2c(Cl)ccc(OCCCS(=O)(=O)O)c2C2(CCCCC2)N1    10

A. Cn1nc(-c2ccc(Cl)cc2)s/c1=N\c1ccc(F)cc1
B. CNCCOc1ccc(Cl)c2c1C1(CCCCC1)NC(=O)N2
C. CCn1c(NC2CCCC2)nc2c(CCCN3CCOCC3)csc2c1=O
D. Cn1nc(-c2ccc(Cl)cc2)s/c1=N\c1ccccc1O
QUERY: Exam item: list the entries in increasing order of IC50. Put the labels in the requested order and list them out.
RESULT: C, B, A, D
(C: 39 nM, B: 960 nM, A: 2200 nM, D: 5300 nM)

* * *

Below are IC50 measurements against UniProt:Q13946 drawn from the literature.
VALUE_KIND: IC50 (nM)

// solved cases for IC50 follow
1) O=C1Nc2c(Cl)cccc2C2(CCCCC2)N1    170
2) COC(=O)c1cccc(-c2nn(C)/c(=N/C3CCCCC3)s2)c1    140
3) Cn1nc(-c2ccc(Cl)cc2)s/c1=N\C1(CO)CCCC1    4000
4) Cn1nc(-c2ccc(Cl)cc2)s/c1=N\c1cccc(-c2nn[nH]n2)c1    80

P. Cc1ccc(Cl)c2c1C1(CCCCC1)NC(=O)N2
Q. C=CCNc1nc2cc(-c3ccc(C(=O)NCCCN(C)C)cc3)sc2c(=O)n1C
R. CCn1c(NC2CCCC2)nc2c(-c3ccc(CN4CCOCC4)cc3)csc2c1=O
S. Cc1cc(-c2nn(C)/c(=N/C3CCCCC3)s2)ccc1C(N)=O
T. Cn1nc(-c2ccc(Cl)cc2)s/c1=N\c1cccc(O)c1
QUERY: Exam item: list the entries in increasing order of IC50. Put the labels in the requested order and list them out.
RESULT: R, P, Q, S, T

* * *

pIC50: −log10 of the molar value.
Below are pIC50 measurements against High affinity 3',5'-cyclic-AMP phosphodiesterase 7A (Homo sapiens, UniProt Q13946) drawn from the literature.
VALUE_KIND: pIC50

// solved cases for pIC50 follow
1) Cn1nc(-c2ccc(S(C)(=O)=O)cc2)s/c1=N\C1CCCCC1    6.89
2) CCn1c(NC(C)(C)C)nc2ccsc2c1=O    5.82

a. Cn1nc(-c2ccc(Cl)cc2)s/c1=N\C1CCCCC1
b. O=C1Nc2c(Cl)ccc(OCCO)c2C2(CCCCC2)N1
c. CNCC(O)COc1ccc(Cl)c2c1C1(CCCCC1)NC(=O)N2 (stereo unspecified)
QUERY: Exam item: list the entries in increasing order of pIC50. Put the labels in the requested order and list them out.
RESULT: a, c, b

* * *

Below are pIC50 measurements against High affinity 3',5'-cyclic-AMP phosphodiesterase 7A (Homo sapiens, UniProt Q13946) drawn from the literature.
pIC50: −log10 of the molar value.
VALUE_KIND: pIC50

// solved cases for pIC50 follow
1) CCn1c(=O)c2c(c3ccc(C)nc31)O[C@@](C)(CCO)C[C@H]2C=C(C)C    5.67
2) Cn1nc(-c2ccc(Cl)cc2)s/c1=N\c1cccc(F)c1    5.18
3) CCn1c(NC(C)C)nc2c(C3CCN(C(=O)c4ccccc4)C3)csc2c1=O (stereo unspecified)    8.82

a. Cn1nc(-c2ccc(Cl)cc2)s/c1=N\c1ccc(C(=O)O)cc1
b. COc1ccc(Cl)c2c1C1(CCCCC1)NC(=O)N2
c. Cn1nc(-c2ccc(Cl)cc2)s/c1=N\C(C)(C)CO
d. CCn1c(Nc2ccncc2F)nc2c(C(C)(C)O)csc2c1=O
QUERY: Sort the 4 compounds by pIC50; largest first, smallest last. Put the labels in the requested order and list them out.
RESULT: d, b, c, a
(d: 8.68, b: 8.00, c: 5.72, a: 5.34)

* * *

Below are pIC50 measurements against High affinity 3',5'-cyclic-AMP phosphodiesterase 7A (Homo sapiens) drawn from the literature.
pIC50: −log10 of the molar value.
VALUE_KIND: pIC50

// solved cases for pIC50 follow
1) N#CCOc1ccc(Cl)c2c1C1(CCCCC1)NC(=O)N2    7.70
2) CCn1c(NC2CCCC2)nc2cc(C(=O)Nc3ccc(N4CCC(O)CC4)nc3)sc2c1=O    5.59

a. Cn1nc(-c2ccc(Cl)cc2)s/c1=N\c1ccc(O)c(C(=O)O)c1
b. Cn1nc(-c2ccc(Cl)c(S(N)(=O)=O)c2)s/c1=N\C1CCCCC1
QUERY: Could you kindly indicate whether a or b has the higher pIC50 value? Your choice should be expressed through its label.
RESULT: b
(b: 7.22, a: 6.82)

* * *

pIC50: −log10 of the molar value.
Below are pIC50 measurements against High affinity 3',5'-cyclic-AMP phosphodiesterase 7A (Homo sapiens, UniProt Q13946) drawn from the literature.
VALUE_KIND: pIC50

// solved cases for pIC50 follow
1. CCn1c(Nc2ccncc2F)nc2c(CCCO)csc2c1=O    8.41
2. CC(C)/N=c1\sc(-c2ccc(Cl)cc2)nn1C    5.41

P. O=C(O)c1ccc(-c2c(/C=C/c3ccc4ccccc4n3)nc3c(N4CCOCC4)ccnn23)cc1
Q. Cc1nc(N)c2ccc(-c3nn(C)/c(=N/C4CCCCC4)s3)cc2n1
R. Cn1nc(-c2cccc(C(N)=O)c2)s/c1=N\C1CCCCC1
QUERY: Exam item: list the entries in increasing order of pIC50. Put the labels in the requested order and list them out.
RESULT: P, R, Q

* * *

Below are IC50 measurements against High affinity 3',5'-cyclic-AMP phosphodiesterase 7A (Homo sapiens, UniProt Q13946) drawn from the literature.
VALUE_KIND: IC50 (nM)

// solved cases for IC50 follow
1) C=CCNc1nc2cc(-c3ccc(N4CCN(C(C)C)CC4)cc3)sc2c(=O)n1C    160
2) O=C(O)CNCCOc1ccc(Cl)c2c1C1(CCCCC1)NC(=O)N2    40
3) CCn1c(Nc2ccncc2F)nc2c(C3CCCN(C(=O)C(C)(C)CO)C3)csc2c1=O (stereo not given)    1.2
4) COc1c(O)cc(-c2nn(C)/c(=N/C3CCCCC3)s2)cc1O    60
5) CCC/N=c1\sc(-c2ccc(Cl)cc2)nn1C    7700

A. CN(C)CCN(C)C(=O)c1ccc(-c2nn(C)/c(=N/C3CCCCC3)s2)cc1
B. O=C1Nc2c(Cl)ccc(OCc3nn[nH]n3)c2C2(CCCCC2)N1
QUERY: Identify the entry with the smaller IC50: A or B . Your choice should be expressed through its label.
RESULT: B
(B: 4 nM, A: 470 nM)

1. Cn1nc(-c2ccc(N)cc2)s/c1=N\C1CCCCC1
2. Cn1nc(-c2ccc(Cl)cc2)s/c1=N\c1cccc(C(=O)O)c1O
3. CCn1c(NC2CCCC2)nc2c(-c3cccc(C(=O)OC)c3)csc2c1=O
4. CCn1c(Nc2ccccc2C#N)nc2ccsc2c1=O
5. CCn1c(CC(C)C)nc2ccsc2c1=O
QUERY: Sort the 5 compounds by IC50; largest first, smallest last. Put the labels in the requested order and list them out.
RESULT: 5, 4, 1, 2, 3
(5: 4700 nM, 4: 2300 nM, 1: 560 nM, 2: 260 nM, 3: 5 nM)

1. CCNc1nc2ccsc2c(=O)n1CC
2. CCn1c(Nc2ccncc2F)nc2ccsc2c1=O
QUERY: Identify the entry with the smaller IC50: 1 or 2 . Your choice should be expressed through its label.
RESULT: 2

* * *

Below are IC50 measurements against High affinity 3',5'-cyclic-AMP phosphodiesterase 7A (Homo sapiens, UniProt Q13946) drawn from the literature.

// solved cases for IC50 follow
1. CCn1c(NC(C)C)nc2c(C3CCN(C(=O)c4ncccc4C)C3)csc2c1=O (centres undefined)    0.0014 µM
2. CC(C)c1n[nH]c2c(=O)[nH]c(C[C@@H]3CCCC[C@H]3Nc3ncc(C(=O)O)c(C(F)(F)F)n3)nc12    > 1 µM
3. CCn1c(Nc2cccc(C)c2)nc2ccsc2c1=O    > 1 µM

QUERY: What does the record list as IC50 for `CCc1ccccc1Nc1nc2ccsc2c(=O)n1CC` ?
RESULT: > 1 µM
